system: Vero E6 African green monkey kidney cells; assay: Antiproliferative activity in non-tumour reference cell line; assay type: cell-based; conditions: Vero E6 non-tumour reference cell line; SD in parentheses, n = 3
For each of the compounds below, state its pIC50.
Give bare numbers, as −log10 of the molar value.

Worked cases, answers included:
1) CCOC(=O)c1cn(C)[c]([Au-][c]2n(C)cc(C(=O)OCC)[n+]2C)[n+]1C.F[B-](F)(F)F [3c]; 4.50
2) CC(=O)OC[C@H]1O[C@@H]([S-])[C@H](OC(C)=O)[C@@H](OC(C)=O)[C@@H]1OC(C)=O.CCP(CC)CC.[Au+] [AF, auranofin, reference compound]; 5.62
3) CCOC(=O)c1cn(C)[c]([Au-]([Cl])([Cl])[Cl])[n+]1C [4c]; 4.68
4) CCOC(=O)c1cn(C)[c]([Au-][Cl])[n+]1C [2c]; 4.88
5) CCOC(=O)c1cn(C)[c]([Au-]([Cl])([Cl])[c]2n(C)cc(C(=O)OCC)[n+]2C)[n+]1C.F[B-](F)(F)F [5c]; 4.51
6) Cn1cc(C(=O)O)[n+](C)[c]1[Au-]([Cl])([Cl])[Cl] [4a]; 4.37

// moving on: another record for pIC50
Task: Which measured pIC50 belongs to COC(=O)c1cn(C)[c]([Au-]([Cl])([Cl])[Cl])[n+]1C [4b] , tested on Vero E6 African green monkey kidney cells?
Output: 4.65

* * *

Would you kindly list MIC, K. pneumoniae for each of these compounds?
tested on: Klebsiella pneumoniae DSM111678; assay: Antibacterial activity (MIC, curve fitting); format: cell-based; conditions: Table S12; ± standard error of the mean
Give bare numbers, in µM.

1) Cn1cc(C(=O)O)[n+](C)[c]1[Au-]([Cl])([Cl])[Cl] [4a]; 36.08
2) Cn1cc(C(=O)O)[n+](C)[c]1[Au-][c]1n(C)cc(C(=O)O)[n+]1C.[Cl-] [3a]; 62.4
3) CC(=O)OC[C@H]1O[C@@H]([S-])[C@H](OC(C)=O)[C@@H](OC(C)=O)[C@@H]1OC(C)=O.CCP(CC)CC.[Au+] [AF, auranofin, reference compound]; 81
4) CCOC(=O)c1cn(C)[c]([Au-]([Cl])([Cl])[Cl])[n+]1C [4c]; 33.93
5) COC(=O)c1cn(C)[c]([Au-][Cl])[n+]1C [2b]; 41.39

I have 3 compounds here; please give me MIC, K. pneumoniae for each one.
1. CCOC(=O)c1cn(C)[c]([Au-][Cl])[n+]1C [2c]
2. Cn1cc(C(=O)O)[n+](C)[c]1[Au-][Cl] [2a]
3. COC(=O)c1cn(C)[c]([Au-]([Cl])([Cl])[Cl])[n+]1C [4b]

Output:
1: 39.94; 2: 42.95; 3: 34.97

* * *

biological target: TrxR from E. coli (Escherichia coli, UniProt P0A9P4); test: Inhibition of isolated bacterial TrxR, DTNB-based assay; type: biochemical; design: purchased Sigma-Aldrich; conditions: compounds at 0.5 µM; n = 2; Table S13
Sequence (P0A9P4 2-321): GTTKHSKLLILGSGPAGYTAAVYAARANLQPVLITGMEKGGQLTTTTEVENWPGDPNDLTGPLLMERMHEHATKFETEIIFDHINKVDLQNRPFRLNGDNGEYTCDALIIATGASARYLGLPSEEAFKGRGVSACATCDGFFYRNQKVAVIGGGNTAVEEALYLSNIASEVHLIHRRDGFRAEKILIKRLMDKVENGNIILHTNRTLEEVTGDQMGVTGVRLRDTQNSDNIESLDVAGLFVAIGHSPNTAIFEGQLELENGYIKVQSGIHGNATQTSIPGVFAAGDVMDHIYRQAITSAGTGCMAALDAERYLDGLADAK
Outcome Measure: TrxR activity, % of control

Some solved cases for reference:
1) Cn1cc(C(=O)O)[n+](C)[c]1[Au-]([Cl])([Cl])[c]1n(C)cc(C(=O)O)[n+]1C.[Cl-]; 91.6 % of control
2) CCOC(=O)c1cn(C)[c]([Au-][Cl])[n+]1C; 13.8 % of control

Task: Consider the molecule shown here: COC(=O)c1cn(C)[c]([Au-]([Cl])([Cl])[Cl])[n+]1C What is its recorded TrxR activity, % of control?
Output: 36.5 % of control
